# measurement_notes: Selectivity index, ratio of compound concentration for cell killing activity in human 184B5 cells to compound concentration for cell killing activity in human A549 cells
# Type: toxicity, cell-based
# conditions_used: 184B5 cells versus A549 cells, read-out: Selectivity Index
readout_type: selectivity ratio

INSERT INTO assay_data (compound, result) VALUES
  ('COc1ccc2nc3cc(Cl)ccc3c(NCCCN3C(=O)CCSC3c3cccs3)c2c1 (stereo unspecified)', '3 to 6');

----------
# measurement_notes: Selectivity index, ratio of compound concentration for cell killing activity in human MCF10A cells to compound concentration for cell killing activity in human LNCAP cells
# Format: toxicity, cell-based
# conditions_used: MCF10A cells versus LNCAP cells, read-out: Selectivity Index
readout_type: selectivity ratio

INSERT INTO results (compound, result) VALUES
  ('COc1ccc2nc3cc(Cl)ccc3c(NCCCN3C(=O)CCSC3c3cccs3)c2c1 (stereo unspecified)', '3 to 6');
